- Tested on: P388 leukemia ip, CD2F1 mice, survival T/C
- Measurement Notes: NCI In Vivo Anticancer Drug Screen. Data for tumor model P388 Leukemia (intraperitoneal) in CD2F1 (CDF1) mice
- Applied Conditions: endpoint: median survival time; dose: 100.0 mg/kg/injection; schedule: Q04DX003 (ip); vehicle: saline with Tween-80; higher = longer survival
Toxic doses and inconclusive results are not listed.
Measured Attribute: T/C

The examples below pair each entry with its known result.
- Molecule: "N#CC1C(=O)NC(=O)C(C#N)C12CCCCC2 (stereo unspecified)"
  T/C: "100 % of control"
- Molecule: "CCCCCCCCCCCCCCCCCC(=O)NN"
  T/C: "94 % of control"
- Molecule: "CCC(c1ccc(O)cc1)C(CC)c1ccc(OC)cc1 (stereo unspecified)"
  T/C: "104 % of control"
- Molecule: "O=C(O)CCC(=O)c1ccc(Br)cc1"
  T/C: "109 % of control"
- Molecule: "Nc1cc(N)cc(Cc2ccccc2)c1"
  T/C: "100 % of control"
- Molecule: "COc1ccc(C(=O)CC(C#N)c2ccc(OC)c(OC)c2)cc1OC (stereo unspecified)"
  T/C: "90 % of control"

Indicate the recorded T/C value for this molecule: Nc1cc(S(=O)(=O)F)ccc1Cl
100 % of control

###

- Tested on: P388 leukemia ip, CD2F1 mice, survival T/C
- Measurement Notes: NCI In Vivo Anticancer Drug Screen. Data for tumor model P388 Leukemia (intraperitoneal) in CD2F1 (CDF1) mice
- Applied Conditions: endpoint: median survival time; dose: 100.0 mg/kg/injection; schedule: Q01DX009 (ip); vehicle: Klucel (hydroxypropylcellulose) (HPC); higher = longer survival
Toxic doses and inconclusive results are not listed.
Quick list: T/C per entry.

Examples from the recorded data:
- Molecule: "COc1cc([N+](=O)[O-])ccc1Nc1c2ccccc2nc2ccccc12"
  Target Entity: "P388 leukemia ip, CD2F1 mice, survival T/C"
  T/C: "98 % of control"
- Molecule: "Nc1nc(=S)c2ncn(C3CC(O)C(CO)O3)c2[nH]1 (stereo unspecified)"
  Target Entity: "P388 leukemia ip, CD2F1 mice, survival T/C"
  T/C: "113 % of control"
- Molecule: "CC(=O)C1C(=O)C(=O)N(c2ccc(Cl)cc2)C1=O (stereo unspecified)"
  Target Entity: "P388 leukemia ip, CD2F1 mice, survival T/C"
  T/C: "96 % of control"
- Molecule: "OC1CN(C(c2ccccc2)c2ccccc2)C1"
  Target Entity: "P388 leukemia ip, CD2F1 mice, survival T/C"
  T/C: "108 % of control"
- Molecule: "CN(C)c1cc(N(C)C)c2ccccc2n1"
  Target Entity: "P388 leukemia ip, CD2F1 mice, survival T/C"
  T/C: "97 % of control"

Answer with the recorded T/C for the molecule listed here: CCOC(=O)Cc1ccc(-c2csc(Nc3ccccc3)n2)cc1
98 % of control

Give T/C for the following molecule: CCOC(=O)c1c[nH]c2c(Cl)c(Cl)ccc2c1=O
95 % of control

Provide measured T/C value, entry: Oc1ccccc1C=Nc1ccccc1N=Cc1ccccc1O.[Zn]
98 % of control

Please indicate T/C recorded for CCO/C=N/c1c(C#N)cnn1C
98 % of control

Assign T/C to the following record: CC(Cl)CN(CC(C)Cl)c1ccc2c(c1)Cc1ccccc1-2 (stereo unspecified)
112 % of control

###

- Tested on: P388 leukemia ip, CD2F1 mice, survival T/C
- Measurement Notes: NCI In Vivo Anticancer Drug Screen. Data for tumor model P388 Leukemia (intraperitoneal) in CD2F1 (CDF1) mice
- Applied Conditions: endpoint: median survival time; dose: 25.0 mg/kg/injection; schedule: Q01DX009 (ip); vehicle: saline with Tween-80; higher = longer survival
Toxic doses and inconclusive results are not listed.
Collected T/C values appear next to each entry.

// solved cases for T/C follow
- Compound: "N#Cc1ccc([N+](=O)[O-])o1"
  T/C: "90 % of control"
- Compound: "N#CS.N=C=S.O=N[O-].[Co+3].[NH2-].[NH2-].[NH2-].[NH2-]"
  T/C: "102 % of control"
- Compound: "O=[N+]([O-])c1ccc(-c2nc(/C=N/N3CCSCC3)cs2)s1"
  T/C: "100 % of control"
- Compound: "CC1NCC23CCC4C(CC=C5CC(O)CCC54C)C2CCC13 (configuration not stated)"
  T/C: "90 % of control"
- Compound: "CCN(CC)c1ccc2cc(-c3nc4ccccc4[nH]3)c(=O)oc2c1"
  T/C: "95 % of control"

Output measured T/C for this item: CCOC(=O)C(CCBr)SC (configuration not stated)
99 % of control

Using the record for O=[N+]([O-])c1cnc2ccccn12 , state its measured T/C.
93 % of control

Identify measured T/C corresponding to CCOS(=O)(=O)CCl
100 % of control

Identify measured T/C corresponding to OC1(c2ccc(CCc3ccc(C4(O)C(c5ccccc5)=C(c5ccccc5)C(c5ccccc5)=C4c4ccccc4)cc3)cc2)C(c2ccccc2)=C(c2ccccc2)C(c2ccccc2)=C1c1ccccc1
93 % of control

Give a short answer stating reported T/C for O=C(Nc1ccc(Br)cn1)c1sc2ccccc2c1Cl .
99 % of control

Determine its reported T/C: Nc1nc(N)c(N=O)c(Nc2cccc(Br)c2)n1
99 % of control

Specify reported T/C for the compound shown: CCCOC(=O)/C=C(\I)C(=O)OCCC
110 % of control

Give T/C for the following compound: C/C(=N\O)C(C)(O)C(C)(C)C (configuration not stated)
103 % of control

Quick one: give measured T/C for CCCCCc1cc(O)c2c(c1)OC(C)(CCC=C(C)C)C=C2 (configuration not stated)
109 % of control

Determine from records and report T/C for CCOc1n[n+]([O-])c(Cl)cc1[N+](=O)[O-]
103 % of control

For the compound O=C(Nc1cccnc1)c1ccccc1 , give its measured T/C value.
100 % of control

Name the recorded T/C of the item O=C(CC(O)(C(F)(F)F)C(F)(F)F)c1cc(CC(=O)C(O)(C(F)(F)F)C(F)(F)F)cc(CC(=O)C(O)(C(F)(F)F)C(F)(F)F)c1 in your answer.
97 % of control

###

- Test system: P388 leukemia ip, CD2F1 mice, survival T/C
- Measurement Notes: NCI In Vivo Anticancer Drug Screen. Data for tumor model P388 Leukemia (intraperitoneal) in CD2F1 (CDF1) mice
- Applied Conditions: endpoint: median survival time; dose: 200.0 mg/kg/injection; schedule: Q01DX001 (ip); vehicle: Klucel (hydroxypropylcellulose) (HPC); higher = longer survival
Inconclusive results and toxic doses are left out.
Measured Attribute: T/C

Give the reported value of T/C for this record: CCOC(=O)c1c(C2OC(CO)C(O)C2O)cn(C)c1-c1ccccc1 (stereo unspecified)
98 % of control

Please indicate T/C recorded for C[CH2][Sn]([CH2]C)([O]c1cccccc1=O)[O]c1cccccc1=O
110 % of control

Determine from records and report T/C for COc1ccc(Cc2ccccc2CO)c2ccccc12
100 % of control

Assign T/C to the following record: CC(C)C1NC(C(C)C)N2C(C(C)C)N12 (stereo unspecified)
100 % of control

Item Clc1cccc2nnc(Br)n12 : provide T/C
111 % of control

# return recorded T/C for entry Cn1c(Br)c(/C=N/NC(N)=S)c2ccccc21
100 % of control

Fill in T/C for record Cc1nnc2c(N)nccn12
96 % of control

###

- System: P388 leukemia ip, CD2F1 mice, survival T/C
- Measurement Notes: NCI In Vivo Anticancer Drug Screen. Data for tumor model P388 Leukemia (intraperitoneal) in CD2F1 (CDF1) mice
- Applied Conditions: endpoint: median survival time; dose: 120.0 mg/kg/injection; schedule: Q01DX005 (ip); vehicle: saline with Tween-80; higher = longer survival
Toxic doses and inconclusive results are not listed.
Measured Attribute: T/C

These recorded examples may help you get a feel for the data.
- Compound: "C[Si](C)(C)O[C@@H]1CCCC1N (some centres not stated)"
  T/C: "97 % of control"
- Compound: "CC1=NN(C(=O)c2ccccn2)C(=O)C1N=Nc1ccc(S(=O)(=O)Nc2ncccn2)cc1 (configuration not stated)"
  T/C: "105 % of control"
- Compound: "OCC1OC([Se])C(O)C(O)C1O.[CH3][Sb][CH3] (configuration not stated)"
  T/C: "104 % of control"
- Compound: "CNc1nc(N)nc(N)c1N1CCN(c2ccc(C(=O)NC(CCCC(=O)O)C(=O)O)cc2)CC1 (configuration not stated)"
  T/C: "100 % of control"
- Compound: "CC(=O)N[C@H]1CCC2[C@@H]3CCC4=CC(=O)NCC[C@]4(C)C3CC[C@@]21C (some centres not stated)"
  T/C: "92 % of control"
- Compound: "O=C(Cc1n[nH]c(=S)nc1CC(=O)c1ccccc1)c1ccccc1"
  T/C: "97 % of control"
- Compound: "O=C1OC(C2OC(=O)C(=O)C2C(=O)c2ccc([N+](=O)[O-])cc2)C(C(=O)c2ccc([N+](=O)[O-])cc2)C1=O (configuration not stated)"
  T/C: "94 % of control"
- Compound: "COC(=O)c1nnc(C(=O)OC)c2c1c1ccccc1n2C(=O)c1ccccc1"
  T/C: "93 % of control"
- Compound: "CCOC(=O)C1=C(O)c2ccccc2S(=O)(=O)N1C (tested in a mixture with another compound)"
  T/C: "107 % of control"
- Compound: "Cc1cc(=O)n2c(n1)sc1ccc3ccccc3c12"
  T/C: "100 % of control"

State its T/C: Cn1c(=O)[nH]c(N)c(C(=O)CCl)c1=O
105 % of control

Query T/C for COC(=O)c1c(O)c(OC)c(-c2ccccc2)[nH]c1=O
89 % of control

# return recorded T/C for entry CC(C)(C)c1ccc(C(=O)n2c(=S)oc3ccc(Cl)cc32)cc1
95 % of control

Specify reported T/C for the compound shown: CCOC(=O)c1c(C)c(C(C)=O)c2ccccn12
119 % of control

Fill in T/C for record C/C(C(=O)c1ccccc1)=C1/NC(C)(C)CO1
103 % of control

// fetch T/C given entry Nc1nnc(-c2ccc(Br)cc2)o1
109 % of control

Report T/C for O=C(O)CSCC(=O)Nc1cc(C(F)(F)F)ccc1Cl
100 % of control
